Test system: A498 renal
Test: NCI tumour cell line growth inhibition, 48 h
metric: TGI (µM)
Answers are plain numbers, in µM.

COc1cccc(-c2cc(-c3ccc(Nc4nc(Nc5ccc(Cl)cc5)nc(Nc5ccc(Cl)cc5)n4)cc3)nc(N)c2C#N)c1: 29.4
O=C1C/C(=C\c2ccccc2)C(=O)c2ccccc2N1: 35.4

Looking up CC1SC(c2ccc(OCc3ccccc3)cc2)N(NC(=O)C(O)(c2ccccc2)c2ccccc2)C1=O (configuration not stated) , I see its TGI listed as 13.7

---

Would you kindly list TGI for each of these molecules?
Test system: SN12C renal
Assay: NCI tumour cell line growth inhibition, 48 h

CC(C)OP(=O)(OC(C)C)C(=Nc1ccc(N=C(NNc2ccc([N+](=O)[O-])cc2)P(=O)(OC(C)C)OC(C)C)cc1)NNc1ccc([N+](=O)[O-])cc1: > 100 µM

Go through the items and report each one's TGI.
1. C=C1C(=O)O[C@H]2[C@@H]3O[C@@](C)(CC/C=C(\C)CCC[C@@H]2C)[C@H](O)C[C@@H]13
2. C=C(C)[C@@H]1CC[C@]2(C(=O)OC)CC[C@]3(C)[C@H](CC[C@@H]4[C@@]5(C)CC/C(=N\OCCC(=NCCC#N)NOCCC#N)C(C)(C)[C@@H]5CC[C@]43C)[C@@H]12
3. Cc1c(Cl)ccc2[s+]snc12

stdout:
1: 8.15 µM; 2: 14.7 µM; 3: 57.3 µM

---

For each entry below, report its TGI value.
Test system: NCI-H522 lung
Test: NCI tumour cell line growth inhibition, 48 h

Guide cases for TGI, answers given:
NS(=O)(=O)c1ccc(NNc2c3ccccc3nc3c(C(=O)Nc4ccc(S(N)(=O)=O)cc4)cccc23)cc1: 50.8 µM
CC[C@@]12CC(C(=O)OC)=C3Nc4ccccc4[C@@]34CCN(C[C@H]3O[C@H]31)[C@@H]24: > 100 µM
COC(=O)C#CC1(O)C=CC(=O)C=C1: 0.552 µM
CC(=O)Nc1ccc(/C=C/C(=O)c2sc(-n3nc(-c4ccccc4)cc3-c3ccccc3)nc2C)cc1: > 100 µM
c1c[nH]c(CN2CCN(Cc3ncc[nH]3)CC2)n1: > 100 µM

Would you be so kind as to report TGI for each listed record?
1. CN(C)CCCn1c2c(c3ccc(N4CCNCC4)cc3c1=O)C(=O)c1ccccc1-2
2. CC(C)OC(=O)OCOP(=O)(OCOC(=O)OC(C)C)C1CCCN(O)C1=O (configuration not stated)

stdout:
1: 2.55 µM; 2: > 100 µM

---

Test system: IGROV1 ovarian
Assay: NCI tumour cell line growth inhibition, 48 h
Please provide measured GI50 for the entries that follow.

Previously resolved entries follow.
Cc1nn(-c2ccccc2)c2c1[C@@H](C)[C@H]1CC3(CC4(C)C[C@@H]3C1(C)c1c(C)nn(-c3ccccc3)c1N4C)N2C (stereo partly drawn): > 100 µM
CCC[CH2][Sn]1([CH2]CCC)[O]C(=O)c2cccnc2[S]1: 11.2 µM

For each of the items listed, what is its GI50?
1. COC(=O)[C@@H](C)C[C@H](Cc1ccccc1)NC(=O)c1nc([C@@H](C[C@H](C(C)C)N(C)C(=O)[C@@H](NC(=O)[C@H]2CC(=O)CCN2C)C(C)C)OC(C)=O)sc1C(C)C
2. C=C(CN1CCc2ccccc2C1)c1ccc(C(=O)Nc2cccc(N)c2)cc1
3. CC1SC(c2ccc(OCc3ccccc3)cc2)N(NC(=O)C(O)(c2ccccc2)c2ccccc2)C1=O (stereo not drawn)
4. CC/C(=C\c1ccc(N(C)C)cc1)c1ccncc1
5. C=C(C)[C@@H]1CC[C@]2(C(=O)OC)CC[C@]3(C)[C@H](CC[C@@H]4[C@@]5(C)CC/C(=N\OCCC(=NCCC#N)NOCCC#N)C(C)(C)[C@@H]5CC[C@]43C)[C@@H]12
6. COc1ccc2c(c1)OCC1c3cc(OC)ccc3OC21 (stereo not drawn)

stdout:
["0.111 µM", "16 µM", "2.4 µM", "5.47 µM", "14.9 µM", "49.5 µM"]

---

System: MDA-MB-435
Please answer using one outcome listed in T for active, F for inactive

C=C(CN1CCc2ccccc2C1)c1ccc(C(=O)Nc2cccc(N)c2)cc1: F
Fc1cnccc1-c1nc2ccc3[nH]ncc3c2c2c1CCCC2: F
CC1(C)CCC(c2ccc(Cl)cc2)=C(CN2CCN(c3ccc(C(=O)NS(=O)(=O)c4ccc(N[C@H](CCN5CCOCC5)CSc5ccccc5)c(S(=O)(=O)C(F)(F)F)c4)cc3)CC2)C1: F

stdin: Would you mind telling me which call this test gave `CCCCCCCCCCCCNC(=O)N[C@H](C(=O)N[C@H]1/C=C/OCCNC(=O)/C=C/[C@H](C(C)C)NC1=O)C(C)C` ?
stdout: F

stdin: How did this test come out for `COc1ncc(-c2ccc3nc(N)n(-c4ccccc4C(F)(F)F)c(=O)c3c2)cc1S(=O)(=O)Nc1ccc(F)cc1F` ?
stdout: F

stdin: Any idea what this test logged for `CN1CC[C@H](N(C)C(=O)N2CC(c3cc(F)ccc3F)=C[C@@]2(CO)c2ccccc2)[C@H](F)C1` ?
stdout: T

stdin: Check the results log: what was the call for `COC(=O)[C@@H](C)C[C@H](Cc1ccccc1)NC(=O)c1nc([C@@H](C[C@H](C(C)C)N(C)C(=O)[C@@H](NC(=O)[C@H]2CC(=O)CCN2C)C(C)C)OC(C)=O)sc1C(C)C` ?
stdout: T

---

Tested on: HOP-92 NSCLC
Assay: NCI tumour cell line growth inhibition, 48 h
metric: TGI (µM)
One number for each entry, in µM.

O=P(c1ccccc1)(c1ccccc1)C1CC=C2CCCCCC2C1 (stereo not given): 39.9
BrC(/C=N/Nc1nnc(-c2ccccc2)c(-c2ccccc2)n1)C(Br)c1ccccc1 (stereo not given): 64.5
Cc1nn(-c2ccccc2)c2c1[C@@H](C)[C@H]1CC3(CC4(C)C[C@@H]3C1(C)c1c(C)nn(-c3ccccc3)c1N4C)N2C (stereo not given in full): 8.68
CCCCCCCC(=O)N1C2CC3CCC2(CS1(=O)=O)C3(C)C (stereo not given): 68

Entry `O=c1[nH]c2ccccc2c(=O)c2cc3ccccc3cc12` , HOP-92 NSCLC data, TGI value: 19.8

---

System: HCC-2998 colon
Test: NCI tumour cell line growth inhibition, 48 h
Kindly supply the reported TGI values for the records listed here.

Some solved cases for reference:
COc1ccc(Cc2c3cc(OC)c(OC)cc3cc[n+]2C)cc1: > 32.8 µM
NS(=O)(=O)c1ccc(NCc2cccc3c(=O)c4ccc(Cl)cc4oc23)cc1: > 100 µM
O=C(O)CN1CCN2CCOCCN(CC1)CCN(CC(=O)O)CC2: > 100 µM

Take each entry in turn and give its TGI.
1. N#CN1CCC2CC(=O)CCC2C1 (stereo not given)
2. COc1cc(CC2c3cc(OC)c(OC)cc3CCN2C)c(C(=O)O)cc1OC (stereo not given)
3. N#CCC1CCN(c2nc(Nc3ccc(N4CCC(O)CC4)cc3)c3c(=O)[nH]ncc3n2)CC1
4. CN(C)CCCn1c2c(c3ccc(N4CCNCC4)cc3c1=O)C(=O)c1ccccc1-2
5. COC(=O)[C@@H](N1C(=O)c2ccccc2C1=O)C1(C)CC(Cl)=NO1 (stereo not given in full)
6. FC(F)(F)c1ccc2c(c1)nc(Cc1ccc(Cl)cc1)n2CC1CCCN2CCCCC12 (stereo not given)

stdout:
1: > 100 µM; 2: > 100 µM; 3: > 100 µM; 4: 1.71 µM; 5: > 100 µM; 6: 10.5 µM

The reported TGI of the compound `Cc1[nH]n(C(=O)Cc2ccccc2)c(=O)c1/C=C1\C(=O)C=Cc2ccccc21` was > 100 µM

---

So I've got a bunch of molecules here, and I need their TGI values.
Test system: RPMI-8226 leukemia
Assay: NCI tumour cell line growth inhibition, 48 h
One number for each entry, in µM.

Study these solved cases before continuing.
C/C(=C/C(=O)N(C)c1ccccc1Cl)O[Si](C(C)C)(C(C)C)C(C)C: 63.9
O=C(CNC(=O)c1cccc2ccccc12)Nc1ccccc1Oc1ccc(O)cc1: 10.4
CC(C)OC(=O)OCOP(=O)(OCOC(=O)OC(C)C)C1CCCN(O)C1=O (stereo not drawn): 14.5
BrC(/C=N/Nc1nnc(-c2ccccc2)c(-c2ccccc2)n1)C(Br)c1ccccc1 (stereo not drawn): 70.7
COC(=O)N1C=Cc2c(c(C)c3c([nH]c4ccccc43)c2C)C1C (stereo not drawn): 38.2

Measured TGI, `CC1(C)CC[C@]2(C(=O)O)CC[C@]3(C)C(=CC[C@@H]4[C@@]5(C)C/C(=C/c6cccnc6)[C@H](O)C(C)(C)[C@@H]5CC[C@]43C)[C@@H]2C1` : 18.8

---

System: BT-549 breast
Assay: NCI tumour cell line growth inhibition, 48 h
Hi there, I'd appreciate the recorded TGI for every entry that follows.
Answers are plain numbers, in µM.

Worked cases, answers included:
O=[N+]([O-])C1=Cc2c(O)ccc(O)c2C2c3ccccc3NC12 (centres undefined): 25.8
OC1(c2ccccc2)c2ccccc2N(c2ccccc2)c2ccc(Cl)cc21 (centres undefined): 1.29
CCCN1CCCC(c2ccc(Nc3nc(Nc4cc(F)ccc4C(N)=O)c4cc[nH]c4n3)c(OC)c2)C1 (centres undefined): 7.4
Cc1c(S(=O)(=O)/N=C(\NO)Nc2ccc(Cl)cc2)sc2ccc(Cl)cc12: 31.7

Proceed to the following item.
The compound listed as CCN(CC)CCCC(C)Nc1ccnc2cc(OC)ccc12 (centres undefined) has a reported TGI of 37
